target: GalNAc(a1-3)GalNAc; test: glycan array binding signal (z-score within array); higher = stronger binding; details: glycan notation: IUPAC condensed, linker removed
The sample as a whole holds a higher share of the strongest signals than the screen did.
test-readout: glycan array binding signal (z-score)

### Prompt Specify measured glycan array binding signal (z-score) for PP2A1 (Arabidopsis thaliana) (protein) MFRNQDSKYLIPVQKEAPPVTTLPMKASTVKSPHNCEAILRDADPPISLSSVNLSEQLRSGVFLKPKKQIKYWVDERNSNCFMLFAKNLSITWSDDVNYWTWFTEKESPNENVEAVGLKNVCWLDITGKFDTRNLTPGIVYEVVFKVKLEDPAYGWDTPVNLKLVLPNGKEKPQEKKVSLRELPRYKWVDVRVGEFVPEKSAAGEITFSMYEHAAGVWKKGLSLKGVAIRPKQHHHHHH .
### Response -0.698

### Prompt Specify measured glycan array binding signal (z-score) for XTP3-B-MRH2 (Homo sapiens), Q96DZ1 (protein) EFLSGSYCFRGGVGWWKYEFCYGKHVHQYHEDKDSGKTSVVVGTWNQEEHIEWAKKNTARAYHLQDDGTQTVRMVSHFYGNGDICDITDKPRQVTVKLKCKESDSPHAVTVYMLEPHSCQYILGVESPVICKILDTA .
### Response 5.08

### Prompt Specify measured glycan array binding signal (z-score) for rMpL (Macrolepiota procera) (protein) MSTQVSSGRTYKITNVIAGTVIDLSGEDNKSIIGYPYHSGKNQQWTFNWTGKAWTLRSASSGSYLGIEGTPAGGTRLVAVNDPFEWHIWRDEANENAFRIFVPFTNYNLDLSGYGDTTPGTPVQLWWTWEGLHQTWTIDRP .
### Response -0.265

### Prompt Specify measured glycan array binding signal (z-score) for DCIR1 (Mus musculus), Q9QZ15 (protein) MASEITYAEVKFKNESNSLHTYSESPAAPREKPIRDLRKPGSPSLLLTSLMLLLLLLAITFLVAFIIYFQKYSQLLEEKKAAKNIMHNELNCTKSVSPMEDKVWSCCPKDWRLFGSHCYLVPTVSSSASWNKSEENCSRMGAHLVVIQSQEEQDFITGILDTHAAYFIGLWDTGHRQWQWVDQTPYEESITFWHNGEPSSGNEKCATIIYRWKTGWGWNDISCSLKQKSVCQMKKINL .
### Response -0.78

### Prompt Specify measured glycan array binding signal (z-score) for UDA (Urtica dioica), P11218 (protein) MMMRFLSAVVIMSSAMAVGLVSAQRCGSQGGGGTCPALWCCSIWGWCGDSEPYCGRTCENKCWSGERSDHRCGAAVGNPPCGQDRCCSVHGWCGGGNDYCSGSKCQYRCSSSVRGPRVALSGNSTANSIGNVVVTEPLFDQMFSHRKDCPSQGFYSYHSFLVAAESFPAFGTIGDVATRKREVAAFLAHISQATSGERSDVENPHAWGLCHINTTTVTENDFCTSSDWPCAAGKKYSPRGPIQLTHNFNYGLAGQAIGEDLIQNPDLVEKDPIISFKTALWFWMSQHDNKPSCHDIVLNANSAANRIPNKGVIGNIISRAFGHDDFAVRSSSIGFYKRYCDMLGVSYGHDLKYWFDNTPSSEFQRIQMRVAA .
### Response -0.191
